Tested on: HepG2
Assay: Compound was tested in vitro for up-regulation of low density lipoprotein (LDL) receptor in human hepatocytes (HepG2 cells) at a concentration 3 uM
Type: functional
Record form. Attribute: Activity. Fill in for each entry.
One number for each entry, in %.

The cases that follow already have their Activity on record.
INSERT INTO measurements (smi, observed_property, observed_value) VALUES
  ('Cc1ccc(NC(=O)CCC2CCCCC2)cc1NC(=O)c1ccccc1', 'Activity', 50),
  ('CC(=O)Oc1ccc(C(=O)Nc2cc(NC(=O)COC3CCCCC3)ccc2C)cc1', 'Activity', 17),
  ('CCCCCCCCC(=O)Nc1ccc(C)c(NC(=O)c2ccc(O)cc2)c1', 'Activity', -10),
  ('Cc1ccc(NC(=O)CCC2CCCCC2)cc1C(=O)Nc1ccc(O)cc1', 'Activity', 60),
  ('Cc1ccc(NC(=O)CCC2CCCC2)cc1NC(=O)c1ccc(O)cc1', 'Activity', 25),
  ('O=C(CCC1CCCCC1)Nc1ccc(Cl)c(NC(=O)c2ccc(O)cc2)c1', 'Activity', 8),
  ('COC(=O)c1ccc(C(=O)Nc2cc(NC(=O)CCC3CCCCC3)ccc2C)cc1', 'Activity', 3),
  ('O=C(CCC1CCCCC1)Nc1ccc(F)c(NC(=O)c2ccc(O)cc2)c1', 'Activity', 12);

Value sought for every listed molecule: Activity.
1. Cc1ccc(NC(=O)CCC2CCCCC2)cc1/C=C(\C#N)c1ccc(O)cc1
2. Cc1ccc(C(=O)CCCC2CCCCC2)cc1NC(=O)c1cccnc1

output:
1. 21
2. 111
